tested on: aphids; experiment: Biological test on aphid (spray on cabbage leaf in Petri dishes); format: in vivo; details: average of four Petri dishes, 20 aphids each; 9.6% w/w reagent diluted 1000 times; after 24 hours
Measured Number of dead aphids average by item

// known answers, use as guide
O=S(=O)(N=C1OCCN1Cc1ccc(Cl)nc1)c1ccc(Cl)cc1 :: 17.75
CS(=O)(=O)/N=C1\OCCN1Cc1ccc(Cl)nc1 :: 17.5

(Q) Item CS(=O)(=O)/N=C1\SCCN1Cc1ccc(Cl)nc1 : provide Number of dead aphids average
(A) 17.75

(Q) Item O=S(=O)(N=C1NCCN1Cc1ccc(Cl)nc1)c1ccc(Cl)cc1 : provide Number of dead aphids average
(A) 19.25

(Q) Item CS(=O)(=O)/N=C1\NCCN1Cc1ccc(Cl)nc1 : provide Number of dead aphids average
(A) 18

* * *

test system: aphids; assay: Biological test on aphid (spray on cabbage leaf in Petri dishes); type: in vivo; settings: average of four Petri dishes, 20 aphids each; 9.6% w/w reagent diluted 1000 times; after 24 hours
Quantity: Number of dead aphids average
Kindly provide the number alone.

// known answers, use as guide
CS(=O)(=O)N=C1NCCCN1Cc1ccc(Cl)nc1 :: 18
O=S(=O)(N=C1NCCCN1Cc1ccc(Cl)nc1)c1ccc(Cl)cc1 :: 18.5

(Q) Item O=[N+]([O-])/N=C1\NCCN1Cc1ccc(Cl)nc1 [Comparative Example 1, imidachloprid, reference compound] : provide Number of dead aphids average
(A) 17.25

* * *

Measured Number of dead aphids 4th by item
system: aphids; assay: Biological test on aphid (spray on cabbage leaf in Petri dishes); assay type: in vivo; settings: 4th Petri dish; 20 aphids on cabbage leaf; 9.6% w/w pesticide reagent diluted 1000 times with water, sprayed; examined after 24 hours
Kindly provide the number alone.

O=S(=O)(N=C1SCCN1Cc1ccc(Cl)nc1)c1ccc(Cl)cc1 :: 18
O=S(=O)(N=C1NCCN1Cc1ccc(Cl)nc1)c1ccc(Cl)cc1 :: 20
CS(=O)(=O)N=C1NCCCN1Cc1ccc(Cl)nc1 :: 19
Cc1ccc(S(=O)(=O)N=C2NCCN2Cc2ccc(Cl)nc2)cc1 :: 17
Cc1ccc(S(=O)(=O)N=C2OCCN2Cc2ccc(Cl)nc2)cc1 :: 15

(Q) Item O=S(=O)(N=C1OCCN1Cc1ccc(Cl)nc1)c1ccc(Cl)cc1 : provide Number of dead aphids 4th
(A) 19

(Q) Item Cc1ccc(S(=O)(=O)N=C2SCCN2Cc2ccc(Cl)nc2)cc1 : provide Number of dead aphids 4th
(A) 17

(Q) Item CS(=O)(=O)/N=C1\OCCN1Cc1ccc(Cl)nc1 : provide Number of dead aphids 4th
(A) 17

(Q) Item Cc1ccc(S(=O)(=O)N=C2NCCCN2Cc2ccc(Cl)nc2)cc1 : provide Number of dead aphids 4th
(A) 16

(Q) Item O=[N+]([O-])/N=C1\NCCN1Cc1ccc(Cl)nc1 [Comparative Example 1, imidachloprid, reference compound] : provide Number of dead aphids 4th
(A) 16

(Q) Item CS(=O)(=O)/N=C1\NCCN1Cc1ccc(Cl)nc1 : provide Number of dead aphids 4th
(A) 19

(Q) Item O=S(=O)(N=C1NCCCN1Cc1ccc(Cl)nc1)c1ccc(Cl)cc1 : provide Number of dead aphids 4th
(A) 17

(Q) Item CS(=O)(=O)/N=C1\SCCN1Cc1ccc(Cl)nc1 : provide Number of dead aphids 4th
(A) 18
